# human TS (hTS) (Homo sapiens, UniProt P04818): pIC50 values follow
# Sequence (P04818 whole entry): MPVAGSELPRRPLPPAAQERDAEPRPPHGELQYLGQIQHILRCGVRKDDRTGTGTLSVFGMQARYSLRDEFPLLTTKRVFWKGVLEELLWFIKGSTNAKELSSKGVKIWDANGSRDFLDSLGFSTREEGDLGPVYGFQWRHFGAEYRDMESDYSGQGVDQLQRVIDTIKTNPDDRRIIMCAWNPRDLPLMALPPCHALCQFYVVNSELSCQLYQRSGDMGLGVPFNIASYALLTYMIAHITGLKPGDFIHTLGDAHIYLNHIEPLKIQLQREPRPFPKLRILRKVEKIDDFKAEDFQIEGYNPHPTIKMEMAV
Numbers only, as −log10 of the molar value.

O=C(Nc1ccc(Cl)cc1)Nc1cccc(NS(=O)(=O)c2c[nH]c(=O)[nH]c2=O)c1 [Compound L15f] :: 5.81

Go through the items and report each one's pIC50.
1. O=C(Nc1ccccc1Cl)Nc1ccccc1NS(=O)(=O)c1c[nH]c(=O)[nH]c1=O [Compound L14d]
2. O=C(Nc1ccc(Cl)cc1)Nc1ccc(NS(=O)(=O)c2c[nH]c(=O)[nH]c2=O)cc1 [Compound L13f]
3. Cc1ccc(NC(=O)Nc2ccc(NS(=O)(=O)c3c[nH]c(=O)[nH]c3=O)cc2)cc1 [Compound L13i]
4. Cc1ccc(NC(=O)Nc2ccccc2NS(=O)(=O)c2c[nH]c(=O)[nH]c2=O)cc1 [Compound L14i]
5. Cc1cccc(NC(=O)Nc2ccc(NS(=O)(=O)c3c[nH]c(=O)[nH]c3=O)cc2)c1 [Compound L13h]

1. 5.72
2. 5.20
3. 5.13
4. 5.16
5. 5.34

Each compound below has a recorded value; state its pIC50.
1. Cc1cccc(NC(=O)Nc2ccccc2NS(=O)(=O)c2c[nH]c(=O)[nH]c2=O)c1 [Compound L14h]
2. O=C(Nc1cccc(NS(=O)(=O)c2c[nH]c(=O)[nH]c2=O)c1)Nc1ccccc1Cl [Compound L15d]
3. Cc1ccccc1NC(=O)Nc1ccc(NS(=O)(=O)c2c[nH]c(=O)[nH]c2=O)cc1 [Compound L13g]
4. Cc1cccc(NC(=O)Nc2cccc(NS(=O)(=O)c3c[nH]c(=O)[nH]c3=O)c2)c1 [Compound L15h]
5. O=C(Nc1ccc(NS(=O)(=O)c2c[nH]c(=O)[nH]c2=O)cc1)Nc1ccccc1Cl [Compound L13d]

1. 5.45
2. 5.42
3. 5.03
4. 5.15
5. 5.63

Look up pIC50 for the entries below, preserving their order.
1. O=C(NNC(=O)c1ccccc1NS(=O)(=O)c1c[nH]c(=O)[nH]c1=O)c1cccc(Cl)c1 [Compound 10l, reference compound]
2. O=C(Nc1cccc(Cl)c1)Nc1ccccc1NS(=O)(=O)c1c[nH]c(=O)[nH]c1=O [Compound L14e]
3. Cc1ccccc1NC(=O)Nc1ccccc1NS(=O)(=O)c1c[nH]c(=O)[nH]c1=O [Compound L14g]

1: 5.87; 2: 5.97; 3: 5.19

Please supply pIC50 for each of the following items, keeping them in order.
1. O=C(Nc1cccc(Cl)c1)Nc1cccc(NS(=O)(=O)c2c[nH]c(=O)[nH]c2=O)c1 [Compound L15e]
2. O=C(Nc1ccc(NS(=O)(=O)c2c[nH]c(=O)[nH]c2=O)cc1)Nc1cccc(Cl)c1 [Compound L13e]
3. Cc1ccc(NC(=O)Nc2cccc(NS(=O)(=O)c3c[nH]c(=O)[nH]c3=O)c2)cc1 [Compound L15i]
4. O=C(Nc1ccc(Cl)cc1)Nc1ccccc1NS(=O)(=O)c1c[nH]c(=O)[nH]c1=O [Compound L14f]

[5.66, 5.34, 5.08, 5.67]
